- Test system: Wnt5a (protein binding on small-molecule microarray)
- MEASUREMENT_PROTOCOL: small molecules binding Wnt5a protein – biophysical, small-molecule microarray, 635/667 nm fluorescence, primary screen (AID 1142);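 further: fluorescence read at 667 nm with signal to noise per printed feature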
- CONDITION_LABEL: 635 nm fluorescence, higher = more signal
Below, each entry is listed alongside its reported composite z-score.
The answer should be written as a number, with no unit following it.

QUERY: Hello, please tell me recorded composite z-score for this one: `OCCCc1cc[n+](Cc2cccc(OC(F)(F)F)c2)cc1`
RESULT: 0.012

QUERY: Hello, please tell me recorded composite z-score for this one: `COc1ccc(C#Cc2ccc3c(c2)[C@]2(C(=O)N3)[C@H](c3ccc(OCCO)cc3)N3[C@H](c4ccccc4)[C@H](c4ccccc4)OC(=O)[C@H]3[C@@H]2C(=O)Nc2nc3ccccc3s2)cc1`
RESULT: 0.603

QUERY: Hello, please tell me recorded composite z-score for this one: `NC(=O)NCC#Cc1ccc2c(c1)[C@]1(C(=O)N2)[C@H](C(=O)NC[C@H](O)c2ccccc2)[C@H]2C(=O)O[C@H](c3ccccc3)[C@H](c3ccccc3)N2[C@@H]1c1ccccc1OCCO`
RESULT: -0.0335

QUERY: Hello, please tell me recorded composite z-score for this one: `O=C(CS)NCCCCCCNC(=O)[C@H]1C[C@H]2C(=O)N3CCC[C@H]3C(=O)N2[C@H]1c1ccc(O)cc1`
RESULT: -0.161

QUERY: Hello, please tell me recorded composite z-score for this one: `CO[C@H]1O[C@H](CO)[C@@H](OC(=O)Nc2ccc(C(F)(F)F)cc2)[C@H](OC(=O)Nc2ccccc2)[C@@H]1OC(=O)Nc1ccccc1`
RESULT: 0.534

* * *

- MEASUREMENT_PROTOCOL: optical density change of DRC41 E. coli – strain DRC41, OD650, 24 h, E. coli filamentation project, primary screen (AID 1093);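 further: MC1000 strain lacking acrAB efflux and sulA so SOS filamentation is blocked; test concentration not given here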
- CONDITION_LABEL: E. coli DRC41 growth, higher = more signal, called active from +8 up or from −8 down
Below, each entry is listed alongside its reported z-score.
The answer should be written as a number, with no unit following it.

>  <MOLECULE>
COCCOC(=O)N1C(=O)[C@@]2(c3cc(C#CC4=CCCCC4)ccc31)[C@H](C(=O)N1CCN(c3ncccn3)CC1)[C@H]1C(=O)O[C@H](c3ccccc3)[C@H](c3ccccc3)N1[C@@H]2c1ccc(OCCO)cc1

>  <z-score>
0.0301

$$$$

QUERY: Hello, please tell me recorded z-score for this one: O=C(NCC(O)CO)[C@@]1(Cc2ccccc2)N=C(c2ccc(OCCCO)cc2)O[C@H]1c1ccccc1 (stereo not given in full)
RESULT: 1.62

QUERY: Hello, please tell me recorded z-score for this one: O=C1C2C=CC(C(O)c3ccc(B(O)O)cc3)N(Nc3ccc([N+](=O)[O-])cc3)C2C(=O)N1c1ccccc1 (stereo not given)
RESULT: -0.465

QUERY: Hello, please tell me recorded z-score for this one: [N-]=[N+]=NCc1ccccc1[C@H]1OC(c2ccc(OCCCO)cc2)=N[C@@]1(Cc1ccccc1)C(=O)NCC(O)CO (stereo not given in full)
RESULT: 0.203

QUERY: Hello, please tell me recorded z-score for this one: Cc1cc(C)c(C(O)C2C=CC3C(=O)NC(=O)C3N2Nc2ccccn2)c(C)c1 (stereo not given)
RESULT: -1.16

QUERY: Hello, please tell me recorded z-score for this one: CS(=O)(=O)CCOC(=O)C1=CC(c2ccc(CO)cc2)=CC(c2cccs2)N(Cc2cccc(OC(F)(F)F)c2)C=C1C(=O)OCCS(C)(=O)=O (stereo not given)
RESULT: -0.575

QUERY: Hello, please tell me recorded z-score for this one: CCN(CC)c1ccc(N2CC=CC34O[C@@H]5/C=C\CCCOC(=O)C5[C@H]3C(=O)N(CCCO)[C@@H]4C2=O)cc1 (stereo not given in full)
RESULT: -0.204

QUERY: Hello, please tell me recorded z-score for this one: `O=C(CS)NCCCCCCNC(=O)[C@H]1C[C@H]2C(=O)N3CCC[C@H]3C(=O)N2[C@H]1c1ccc(O)cc1`
RESULT: -0.506

QUERY: Hello, please tell me recorded z-score for this one: C=CCC(OC(C)=O)[C@@H]1[C@@H](N(Cc2ccc(-c3cccc(C(F)(F)F)c3)o2)C(=O)Cc2ccc(OC)cc2)c2cc(OCCCO)ccc2N1C(=O)Cc1ccc(OC)cc1 (stereo not given in full)
RESULT: 1.48

QUERY: Hello, please tell me recorded z-score for this one: `C=CC[C@]1(C(=O)NCCN2CCOCC2)N=C(c2ccc(OCCCO)cc2)O[C@H]1c1ccccc1N=[N+]=[N-]`
RESULT: 1.74

QUERY: Hello, please tell me recorded z-score for this one: `O[C@@H](Cc1ccccc1)[C@@H](/C=C/c1ccccc1)NCc1ccccc1Br`
RESULT: 0.908

QUERY: Hello, please tell me recorded z-score for this one: Cc1ccc(S(=O)(=O)N2CC(C(=O)O)=CCC2c2ccccc2)cc1 (stereo not given)
RESULT: -1.11

QUERY: Hello, please tell me recorded z-score for this one: `O=C1O[C@@H](c2ccccc2)[C@@H](c2ccccc2)N2[C@@H](c3ccc(O)cc3)[C@]3(C(=O)Nc4ccccc43)[C@@H](C(=O)N3CCCCCCC3)[C@H]12`
RESULT: 0.271

QUERY: Hello, please tell me recorded z-score for this one: `C=C(CCCC)C(=O)CC[C@H](OC(C)=O)c1ccc(CO)o1`
RESULT: 1.38

QUERY: Hello, please tell me recorded z-score for this one: O=C1OCC=C[C@H]2OC34C=CCN(Cc5ccccc5)C(=O)[C@H]3N(CCCO)C(=O)[C@@H]4[C@@H]12 (stereo not given in full)
RESULT: 2.76

* * *

Below, each entry is listed alongside its reported composite z-score.
- Test system: Sam68 (KHDRBS1)
- MEASUREMENT_PROTOCOL: compounds binding KHDRBS1 protein – biochemical, small-molecule microarray, 635 nm fluorescence, primary screen (AID 1125);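 further: score merges 667 nm channel intensity with signal to noise over triplicate slides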
- CONDITION_LABEL: higher = more signal
The answer should be written as a number, with no unit following it.

# example entries with known answers
>  <MOLECULE>
O=C(N1CCCCC1)[C@]1(CCS(=O)(=O)c2ccccc2)N=C(c2ccc(OCCCO)cc2)O[C@@H]1c1ccccc1

>  <composite z-score>
1.27

$$$$
>  <MOLECULE>
C=CCN1C(=O)[C@@]2(O[C@@H](CCO)[C@H]([Si](C)(C)c3ccc(OC)cc3)[C@H]2C)c2cc(NC(C)=O)ccc21

>  <composite z-score>
1.33

$$$$
>  <MOLECULE>
COC(=O)[C@@]1(Cc2ccc(OC)cc2)[C@H]2c3cc(C(=O)N4CCCC4)n(CCN4CCOCC4)c3C[C@H]2CN1C(=O)c1ccccc1

>  <composite z-score>
1.29

$$$$
>  <MOLECULE>
COc1ccc([Si](C)(C)[C@@H]2[C@@H](CC(=O)N3Cc4ccccc4C[C@H]3CO)O[C@]3(C(=O)N(Cc4cccc(N5C(=O)COc6ccccc65)c4)c4ccccc43)[C@H]2C)cc1

>  <composite z-score>
1.07

$$$$

QUERY: Hello, please tell me recorded composite z-score for this one: `COc1ccc([Si](C)(C)[C@@H]2[C@@H](CCn3cc([C@H](O)c4ccccc4)nn3)O[C@]3(C(=O)N(C)c4ccccc43)[C@H]2C)cc1`
RESULT: 0.302

QUERY: Hello, please tell me recorded composite z-score for this one: `COCCOC(=O)N1C(=O)[C@@]2(c3cc(C#CC4=CCCCC4)ccc31)[C@H](C(=O)N1CCN(c3ncccn3)CC1)[C@H]1C(=O)O[C@H](c3ccccc3)[C@H](c3ccccc3)N1[C@@H]2c1ccc(OCCO)cc1`
RESULT: 1.17

QUERY: Hello, please tell me recorded composite z-score for this one: `CCCCC(=C=CC[C@H](O)c1ccccc1OCCO)C[C@H](O)c1cc(Cl)cc(Cl)c1O`
RESULT: 0.811

QUERY: Hello, please tell me recorded composite z-score for this one: CCN(CC)c1ccc(N2CC=CC34O[C@@H]5/C=C\CCCOC(=O)C5[C@H]3C(=O)N(CCCO)[C@@H]4C2=O)cc1 (stereo not given in full)
RESULT: 0.244

QUERY: Hello, please tell me recorded composite z-score for this one: `CC(=O)NCCCC[C@@H]1NC(=O)[C@@H]2C[C@H](C(=O)NCc3ccc(F)cc3)[C@H](c3ccc(O)cc3)N2C1=O`
RESULT: 1.02

QUERY: Hello, please tell me recorded composite z-score for this one: `COCCOC(=O)N1C(=O)[C@@]2(c3cc(C#CCC(C(=O)OC)C(=O)OC)ccc31)[C@H](c1ccccc1OCCO)N1[C@H](c3ccccc3)[C@H](c3ccccc3)OC(=O)[C@H]1[C@@H]2C(=O)Nc1nc2ccccc2s1`
RESULT: 1.31

QUERY: Hello, please tell me recorded composite z-score for this one: CCCCN1CC=CC23O[C@@H]4/C=C\CCCOC(=O)C4[C@H]2C(=O)N(C(C)CO)[C@@H]3C1=O (stereo not given in full)
RESULT: -0.296

QUERY: Hello, please tell me recorded composite z-score for this one: `C=C(CCCC)C(=O)CC[C@H](OC(C)=O)c1ccc(CO)o1`
RESULT: 0.865

QUERY: Hello, please tell me recorded composite z-score for this one: `C=C[C@H](OC)[C@@H](OC(=O)Nc1ccc(SC)cc1)c1ccc(OCCO)cc1`
RESULT: 0.904

QUERY: Hello, please tell me recorded composite z-score for this one: `Cc1c(NC(=O)/C(C#N)=C/C=C/c2ccccc2)c(=O)n(-c2ccccc2)n1C`
RESULT: -0.144

QUERY: Hello, please tell me recorded composite z-score for this one: O=C1C2C=CC(C(O)c3ccc(B(O)O)cc3)N(Nc3ccc([N+](=O)[O-])cc3)C2C(=O)N1c1ccccc1 (stereo not given)
RESULT: 1.32
